target: IgG receptor FcRn large subunit p51 (Homo sapiens); experiment: Binding affinity to human FcRn at pH 6 by surface plasmon resonance assay
Peptide text beside a SMILES is read from it.
Reported Kd values for the following compounds.
Answer with a number only, understood to be in µM.

These recorded examples may help you get a feel for the data.
CC(C)C[C@H](NC(=O)CN1CCCC[C@@H](NC(=O)[C@H](Cc2ccccc2)NC(=O)[C@H](Cc2cnc[nH]2)NC(=O)CNC(=O)[C@@H](NC(=O)[C@H](NC(=O)[C@H](Cc2ccccc2)NC(=O)[C@@H](N)CCCNC(=N)N)C(C)(C)S)[C@@H](C)O)C1=O)C(=O)N[C@@H](Cc1ccc(O)cc1)C(=O)N1CCC[C@H]1C(=O)N[C@@H](CS)C(=O)O: 0.103
CC(C)C[C@H](NC(=O)CNC(=O)CNC(=O)[C@H](Cc1ccccc1)NC(=O)[C@H](Cc1cnc[nH]1)NC(=O)CNC(=O)[C@@H](NC(=O)[C@@H](NC(=O)[C@H](Cc1ccccc1)NC(=O)[C@H](CCCN=C(N)N)NC(=O)[C@@H](N)CCC(N)=O)C(C)(C)S)[C@@H](C)O)C(=O)N[C@@H](Cc1ccc(N)cc1)C(=O)N1CCC[C@H]1C(=O)N[C@@H](CS)C(=O)N[C@@H](CC(N)=O)C(=O)NCC(=O)N1CCC[C@H]1C(=O)O: 34
CC(C)C[C@H](NC(=O)CNC(=O)CNC(=O)[C@H](Cc1ccccc1)NC(=O)[C@H](Cc1cnc[nH]1)NC(=O)CNC(=O)[C@@H](NC(=O)[C@H](CCC(=O)O)NC(=O)[C@H](Cc1ccccc1)NC(=O)[C@H](CCCN=C(N)N)NC(=O)[C@@H](N)CCC(N)=O)[C@@H](C)O)C(=O)N[C@@H](Cc1ccc(O)cc1)C(=O)N1CCC[C@H]1C(=O)N[C@@H](CCCN)C(=O)N[C@@H](CC(N)=O)C(=O)NCC(=O)N1CCC[C@H]1C(=O)O: 15

## Input GET /values?readout=Kd&item= C[C@H](NC(=O)CNC(=O)CNC(=O)[C@H](Cc1ccccc1)NC(=O)[C@H](Cc1cnc[nH]1)NC(=O)CNC(=O)[C@@H](NC(=O)[C@H](CS)NC(=O)[C@H](Cc1ccccc1)NC(=O)[C@H](CCCN=C(N)N)NC(=O)[C@@H](N)CCC(N)=O)[C@@H](C)O)C(=O)N[C@@H](Cc1ccc(O)cc1)C(=O)N1CCC[C@H]1C(=O)N[C@@H](CS)C(=O)N[C@@H](CC(N)=O)C(=O)NCC(=O)N1CCC[C@H]1C(=O)O (H-QRFCTGHFGGAYPCNGP-OH)
## Output 26

====

target: IgG receptor FcRn large subunit p51 (Homo sapiens, UniProt P55899); test: Binding affinity to human FcRn at pH 6 by surface plasmon resonance assay
Sequence (P55899 whole entry): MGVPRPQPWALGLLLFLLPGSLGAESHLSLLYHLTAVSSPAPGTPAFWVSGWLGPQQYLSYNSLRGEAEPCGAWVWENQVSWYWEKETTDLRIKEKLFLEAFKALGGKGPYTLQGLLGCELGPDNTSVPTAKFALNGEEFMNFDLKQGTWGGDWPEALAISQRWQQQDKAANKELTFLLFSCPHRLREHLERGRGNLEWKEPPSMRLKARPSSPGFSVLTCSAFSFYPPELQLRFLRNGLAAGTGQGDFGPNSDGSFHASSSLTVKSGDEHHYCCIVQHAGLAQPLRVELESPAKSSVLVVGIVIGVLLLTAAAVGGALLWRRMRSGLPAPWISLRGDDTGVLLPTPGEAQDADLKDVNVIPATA
Reported Kd values for the following compounds.
Answer with a number only, understood to be in nM.

These recorded examples may help you get a feel for the data.
CC(C)C[C@H](NC(=O)CNC(=O)CNC(=O)[C@H](Cc1ccccc1)NC(=O)[C@H](Cc1cnc[nH]1)NC(=O)CNC(=O)[C@@H](NC(=O)[C@@H](NC(=O)[C@H](Cc1ccccc1)NC(=O)[C@H](CCCNC(=N)N)NC(=O)[C@@H](N)CCC(N)=O)C(C)(C)S)[C@@H](C)O)C(=O)N[C@@H](Cc1ccc(O)cc1)C(=O)N1CCC[C@H]1C(=O)N[C@@H](CS)C(=O)N[C@@H](CC(N)=O)C(=O)NCC(=O)N1CCC[C@H]1C(=O)O: 250
CC(C)C[C@@H](C(=O)N[C@@H](Cc1ccc(O)cc1)C(=O)N1CCC[C@H]1C(=O)N[C@@H](CS)C(=O)O)N(C)C(=O)CN(C)C(=O)CNC(=O)[C@H](Cc1ccccc1)NC(=O)[C@H](CCCCN)NC(=O)CNC(=O)[C@@H](NC(=O)[C@@H](NC(=O)[C@H](Cc1ccccc1)NC(=O)[C@@H](N)CCCN=C(N)N)C(C)(C)S)[C@@H](C)O: 1300

Okay, now this compound:
## Input GET /values?readout=Kd&item= C[C@@H](O)[C@H](NC(=O)[C@@H](NC(=O)[C@H](Cc1ccccc1)NC(=O)[C@H](CCCN=C(N)N)NC(=O)[C@@H](N)CCC(N)=O)C(C)(C)S)C(=O)NCC(=O)N[C@@H](Cc1cnc[nH]1)C(=O)N[C@@H](Cc1ccccc1)C(=O)N[C@H](Cc1ccccc1)C(=O)NCC(=O)N1CCC[C@H]1C(=O)N[C@@H](Cc1ccc(O)cc1)C(=O)N1CCC[C@H]1C(=O)N[C@@H](CS)C(=O)N[C@@H](CC(N)=O)C(=O)NCC(=O)N1CCC[C@H]1C(=O)O
## Output 18300
